B1: APBB1IP (parent)
chain: FNYSVGFKDLNESLNALEDQDLDA

Variants of: B1
ASSAY_NOTES: protein stability index of a GFP-peptide fusion (GPS, HEK-293T) (PSI 1-6); higher = more stable;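 also: lentivirally expressed fusions sorted by FACS into six bins by GFP to DsRed ratio, PSI derived from sequencing read proportions per bin multiplied by bin number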
CONDITION: c terminus: a fixed tail appended
MEASUREMENT_NAME: protein stability index

>>> measured_number("S4K")
4.02
>>> measured_number("Q20P")
3.97
>>> measured_number("L14W")
4.05
>>> measured_number("A16F")
3.92
>>> measured_number("L10W")
3.95
>>> measured_number("V5Y")
4.09
>>> measured_number("D21G")
3.94
>>> measured_number("A24I")
4.07
>>> measured_number("Q20C")
4.02
>>> measured_number("D23S")
4.02
